Record form. Attribute: boiling point. Fill in for each entry.
# value in °C; strip the unit string

Note to self: boiling point recorded for CCCCC(Cl)CCl (stereo unspecified) was 173

Note to self: boiling point recorded for CCCC[Si]1(C)O[Si](C)(CCCC)O[Si](C)(CCCC)O[Si](C)(CCCC)O1 (stereo unspecified) was 291

Note to self: boiling point recorded for CCC(O)C(C)(C)C (stereo unspecified) was 135

Note to self: boiling point recorded for "ICI" was 182

Note to self: boiling point recorded for "CC[C@@H](O)[C@@H]1CCCCN1" was 226

Note to self: boiling point recorded for "CCc1cccc2ccccc12" was 259

Note to self: boiling point recorded for "C[C@@H]1C=Cc2ccccc21" was 199

Note to self: boiling point recorded for "Cc1c(Cl)c(Cl)c(Cl)c(Cl)c1Cl" was 301

Note to self: boiling point recorded for "CCOC(C)C" was 54.1

Note to self: boiling point recorded for "CC(C)N" was 31.7

Note to self: boiling point recorded for "CC(C)CS(=O)(=O)CC(C)C" was 265

Note to self: boiling point recorded for "CC(C)CC=NO" was 161

Note to self: boiling point recorded for C=CC1CC2C=CC1C2 (stereo unspecified) was 140

Note to self: boiling point recorded for "CCCCCCCCF" was 142

Note to self: boiling point recorded for "Fc1c(F)c(F)c(Cl)c(F)c1F" was 118

Note to self: boiling point recorded for "CCCCCCCN" was 156

Note to self: boiling point recorded for "O=CC(Cl)Cl" was 89.2

Note to self: boiling point recorded for "Fc1c(F)c(F)c(C(F)(F)F)c(F)c1F" was 104

Note to self: boiling point recorded for "CCCCCCO[N+](=O)[O-]" was 171

Note to self: boiling point recorded for "C=C[Si](C)(C)Cl" was 83.5

Note to self: boiling point recorded for "c1cncnc1" was 124

Note to self: boiling point recorded for "COc1ccc(CC#N)cc1" was 286

Note to self: boiling point recorded for "CCCC(=O)CC(C)C" was 155

Note to self: boiling point recorded for "ClC(Cl)c1ccccc1" was 205

Note to self: boiling point recorded for "Clc1cc(Cl)c2ccccc2c1" was 291

Note to self: boiling point recorded for "CC(=O)CC(=O)OCCCl" was 198

Note to self: boiling point recorded for "COc1ccc(N)cc1" was 243

Note to self: boiling point recorded for c1cc2c3c(c1)CCC3CCC2 (stereo unspecified) was 249

Note to self: boiling point recorded for "CC(C)(CO)CO" was 208

Note to self: boiling point recorded for "CC(C)CCOC(=O)c1ccccc1" was 261

Note to self: boiling point recorded for "Cc1cccc(N=Cc2ccccc2)c1" was 315

Note to self: boiling point recorded for "CCCc1ccccc1C" was 185

Note to self: boiling point recorded for "FC(F)(F)C(F)(F)C(F)(F)C(F)(F)C(F)(F)C(F)(F)C(F)(F)C(F)(F)Br" was 141

Note to self: boiling point recorded for "BrCC(Br)Br" was 189

Note to self: boiling point recorded for "Cc1cc(N)ccc1Cl" was 241

Note to self: boiling point recorded for CC(O)CN (stereo unspecified) was 160

* * *

PROPERTY_LABEL: melting point (°C)
# value in °C; strip the unit string

Note to self: melting point recorded for "C=CCCC" was -165

Note to self: melting point recorded for "COc1nc(C)nc(N)n1" was 260

Note to self: melting point recorded for "Clc1cc(Cl)c(-c2c(Cl)cccc2Cl)c(Cl)c1" was 85

Note to self: melting point recorded for "C=Cc1cccc(C)c1" was -86.3

Note to self: melting point recorded for "CCC(N)(CO)CO" was 37.5

Note to self: melting point recorded for "COC(=O)c1ccccc1C(=O)c1ccccc1" was 52

Note to self: melting point recorded for "Cl[C@H]1CC[C@@H](Cl)CC1" was 18

Note to self: melting point recorded for "CNC(=O)Oc1cccc2ccccc12" was 145

Note to self: melting point recorded for "CCCCCCCCCCCCCCCCCCCCCCCCCCCCCCCCC" was 72

Note to self: melting point recorded for "CC(C(=O)O)(c1ccccc1)c1ccccc1" was 176

Note to self: melting point recorded for "O=C1CC(=O)NC(=O)N1" was 248

Note to self: melting point recorded for "C=COCCCCCCCCCCCCCCCCCC" was 30

Note to self: melting point recorded for "CC(C)CC(C)(C)C" was -107

Note to self: melting point recorded for "CCOC(=O)C(C)=O" was -50

Note to self: melting point recorded for "CCc1cccc2ccccc12" was -13.9

Note to self: melting point recorded for "Cc1cccnn1" was 184
